Test system: DU-145
EXPERIMENT DESCRIPTION: NCI tumour cell line growth inhibition, 48 h
The source made the active and inactive calls. Cut-off read from the data, not from the text of the source: active = GI50 up to about 1.1 µM and inactive = higher.
VALUE TYPE: GI50

COMPOUND	REPORTED
CS(C)(=O)=N/C=C\C(=O)C(Cl)(Cl)Cl	> 100 µM (inactive)
CCC(C)C(NC(=O)C(CCCCN)NC(=O)C(NC(=O)C(CCC(N)=O)NC(=O)C(CCCNC(=N)N)NC(C)=O)C(C)CC)C(=O)NC(Cc1c[nH]c2ccccc12)C(=O)NC(Cc1ccccc1)C(=O)NC(CCC(N)=O)C(=O)NC(CC(N)=O)C(=O)NC(CCCNC(=N)N)C(=O)NC(CCCNC(=N)N)C(=O)NC(CCSC)C(=O)NC(CCCCN)C(=O)NC(Cc1c[nH]c2ccccc12)C(=O)NC(CCCCN)C(=O)NC(CCCCN)C(N)=O (stereo not given)	> 50 µM (inactive)
CC1=CC(=O)/C(=C/NC(=S)NCCc2ccccc2)C(=O)O1	> 100 µM (inactive)

Q: What reported GI50 corresponds to O=C(NC(=S)Nc1ccc2c(c1)Sc1ccccc1O2)c1ccc([N+](=O)[O-])cc1 on DU-145?
Ans: > 100 µM (inactive)

Q: What do you have for C=C(CN(C)C)C1(c2ccccc2)CC2(CCCC2)C(=O)O1 (stereo not given) ?
Ans: > 100 µM (inactive)

###

System: KM12
EXPERIMENT DESCRIPTION: NCI tumour cell line growth inhibition, 48 h
Calls of active or inactive are those of the source. Rule as the data show it: active = GI50 up to about 1.1 µM and inactive = higher.
# output must be one of active, inactive

Worked cases, answers included:
MOLECULE	CATEGORY LABEL
O=CC1C(Cl)=Nc2nc3ccccc3n2C1c1ccc([N+](=O)[O-])cc1 (stereo unspecified)	inactive
NC(Cc1nnn[nH]1)C(=O)O (stereo unspecified)	inactive
C[N+](C)(C)CC(=O)N/N=C(\Cc1nc2ccc([N+](=O)[O-])cc2nc1O)C(=O)Nc1nc2ccc([N+](=O)[O-])cc2s1	inactive
CC(=O)OC1[C@H]2c3cc4c(cc3CN3CCC(=C[C@@H]1O)C23)OCO4 (stereo partly specified)	inactive
CCCCCC/C=C\CCCCCCCCCC1=CC(=O)C=C(OC)C1=O	inactive

Q: Call for entry Cc1cc(C)c(N[S+]([O-])c2cccc(Cl)c2)c(C)c1 (stereo unspecified) :
Ans: inactive

Q: What would you report for Cc1ccc(C2(c3ccc(F)cc3)OC(=O)c3ccccc32)c(O)c1 (stereo unspecified) ?
Ans: inactive

Q: Try this molecule too: CN(C)c1ccc(C(=N/N=C2\C(=O)Nc3ccccc32)c2ccc(N(C)C)cc2)cc1
Ans: active

###

System: A498
EXPERIMENT DESCRIPTION: NCI tumour cell line growth inhibition, 48 h
Activity calls are given as the source filed them. No stated cut-off is given here; in the data, active = GI50 up to about 1.1 µM and inactive = higher.
VALUE TYPE: GI50

Example cases with answers are listed next.
COMPOUND	VALUE TYPE	REPORTED
O=C1C(Br)=C(Br)C(=O)c2c(O)ccc(O)c21	GI50	21.7 µM (inactive)
CCN(CC)CC1CN=C(N)O1 (centres undefined)	GI50	> 100 µM (inactive)
O=C(C(Cl)=C(N1CCCCC1)N1CCCCC1)C(Cl)Cl	GI50	> 100 µM (inactive)

Q: Suppose we examine the compound NC(=S)N/N=C/c1c[nH]c2ccccc12 ; what GI50 value has been reported?
Ans: > 100 µM (inactive)

###

Entries annotated with measured GI50
System: MDA-MB-435
EXPERIMENT DESCRIPTION: NCI tumour cell line growth inhibition, 48 h
The source made the active and inactive calls. Rule as the data show it: active = GI50 up to about 1.1 µM and inactive = higher.

Q: What measured GI50 goes with CC/C(=C/OC)P1(=O)OC(C)(C)CN1C(C)(C)C (stereo unspecified) ?
Ans: > 100 µM (inactive)

Q: // repeat for COc1ccc(C2CC(c3ccc4ccccc4c3O)=NN2)cc1OC (stereo unspecified) and report
Ans: 27 µM (inactive)

Q: Repeat for the following compound: Cc1ccc(Nc2nc(C)c(C(=O)CC(=O)C(=O)Nc3ccc(Cl)cc3)s2)cc1
Ans: > 100 µM (inactive)

Q: Same read-out for CCN1C(c2ccccc2)=CC(c2ccccc2)(C(Cl)(Cl)Cl)C=C1c1ccccc1 ?
Ans: 2.74 µM (inactive)

Q: And then COc1ccccc1NC(=S)N/N=C/c1ccccn1 , what is it?
Ans: 1.61 µM (inactive)

Q: Next: CC(C)[Si](OC12CCC(CC1O)CC2C(=O)O)(C(C)C)C(C)C (stereo unspecified)
Ans: 14.5 µM (inactive)

###

compounds and their reported GI50
Test system: EKVX
EXPERIMENT DESCRIPTION: NCI tumour cell line growth inhibition, 48 h
Activity calls are given as the source filed them. Rule as the data show it: active = GI50 up to about 1.1 µM and inactive = higher.

Some solved entries appear below for comparison.
SMILES	VALUE TYPE	REPORTED
C=CCCCCn1c2ccccc2c2c(C)c3cnccc3c(C)c21	GI50	12.9 µM (inactive)
CCOC(=O)c1ncn(CCc2ccc(Cl)cc2)c1C	GI50	> 100 µM (inactive)

Okay, next one:
Q: Looking for the measured GI50 of Cc1noc(C)c1CCCOC1COc2ccccc2OCCOCCOc2ccccc2OC1 , can you help?
Ans: > 100 µM (inactive)

###

Tested on: NCI/ADR-RES
EXPERIMENT DESCRIPTION: NCI tumour cell line growth inhibition, 48 h
The source made the active and inactive calls. Rule as the data show it: active = GI50 up to about 1.1 µM and inactive = higher.
Readings of GI50 for the listed compounds

Answered cases to consult:
COMPOUND	REPORTED
O=C(O)CN1C(=O)OC(c2ccccc2)C1=O (centres undefined)	> 100 µM (inactive)
COc1cc2nc(-c3c(F)cccc3F)n(Cc3c(F)cccc3F)c2cc1Cc1c(F)cccc1F	> 100 µM (inactive)
COc1cc2c3c(cc(Cl)nc3c1OC)C(O)(CC(C)=O)C(=O)N2 (centres undefined)	> 44.9 µM (inactive)
CN(C)c1ccc(C(=N/N=C2\C(=O)Nc3ccccc32)c2ccc(N(C)C)cc2)cc1	0.218 µM (active)

Q: Query (compound): NCC(=O)NC(CO)C(=O)O (centres undefined) ; field requested: GI50
Ans: > 100 µM (inactive)

Q: Input NC1=CN(CCCO)C2=N/C(=C\c3ccco3)C(=O)N12
Ans: > 100 µM (inactive)

###

Tested on: MDA-N
EXPERIMENT DESCRIPTION: NCI tumour cell line growth inhibition, 48 h
The source made the active and inactive calls. Rule as the data show it: active = GI50 up to about 1.1 µM and inactive = higher.
Lab note: assign the record to one of active, inactive

Worked examples, 6 compounds total:
COMPOUND	CATEGORY LABEL
Nn1c(Cc2ccccc2)n[nH]c1=O	inactive
CC(C)(C)C1=CC(C)(n2[nH]c(=O)n(-c3ccccc3)c2=O)C=C(C(C)(C)C)C1=O	inactive
COc1ccc2[nH]cc(C=C3C(=O)NC(=S)NC3=O)c2c1	inactive
CC(C)[Si](OC12CCC(CC1O)CC2C(=O)O)(C(C)C)C(C)C (stereo not drawn)	inactive
COc1ccc(-c2c3c(n(C4OC(COC(C)=O)C(OC(C)=O)C(OC(C)=O)C4OC(C)=O)c(=S)c2C#N)CCCC3)cc1 (stereo not drawn)	inactive
C[C@H](CCC1=NCCN1)[C@H]1CC[C@H]2[C@@H]3CC[C@@H]4C[C@H](O)CC[C@]4(C)[C@H]3CC[C@]12C	inactive

Q: Assay result, entry CCN(CC)c1ccc2cc(C(N)=O)/c(=N/c3ccc(F)cc3)oc2c1 — outcome?
Ans: inactive

Q: Another compound to look at: CC(C)(CN1CCCCC1)C(/C=C/c1ccc(Cl)c(Cl)c1)=N\NC(=O)N/N=C(/C=C/c1ccc(Cl)c(Cl)c1)C(C)(C)CN1CCCCC1
Ans: inactive

Q: Same read-out for CS(C)(=O)=N/C=C\C(=O)C(Cl)(Cl)Cl ?
Ans: inactive

Q: Similarly, NCC(=O)NC(CO)C(=O)O (stereo not drawn) ?
Ans: inactive

Q: Same lookup for C=CCOCC1C2CCC3(OCCO3)C21 (stereo not drawn) , please.
Ans: inactive

Q: Try the compound Cc1ccc(-c2c(C#N)c(N)nc3c2CCS(=O)(=O)c2ccccc2-3)cc1
Ans: inactive

###

Tested on: OVCAR-3
EXPERIMENT DESCRIPTION: NCI tumour cell line growth inhibition, 48 h
The source made the active and inactive calls. Rule as the data show it: active = GI50 up to about 1.1 µM and inactive = higher.
Output constraint: value belongs to label 1 = active, label 0 = inactive

COMPOUND	ASSAYED SYSTEM	CATEGORY LABEL
CC(=O)/C=C/c1ccc(C)cc1	OVCAR-3	label 0
C=C(C)C1CC[C@]2(C(=O)O)CCC3(C)[C@H](CCC4[C@@]5(C)CC[C@H](OC6OC(CO)C(O)C6OC6OC(C)C(O)C(O)C6O)[C@@](C)(CO)C5CC[C@]43C)C12 (stereo partly drawn)	OVCAR-3	label 0
Cc1cc(S(=O)(=O)Nc2nc(N)nc(N3CCOCC3)n2)c(SCC(=O)O)cc1Cl	OVCAR-3	label 0
COc1ccc(C(CC(=O)c2ccc3c(c2)OCO3)c2c(O)oc3ccccc3c2=O)cc1OC (stereo not drawn)	OVCAR-3	label 0
CC1(C)CC(=O)c2c(nc3ccc4ccccc4c3c2-c2ccc(NC(=O)CCCCC(=O)Nc3ccc(-c4c5c(nc6ccc7ccccc7c46)CC(C)(C)CC5=O)cc3)cc2)C1	OVCAR-3	label 0
Cc1ccc(S(=O)(=O)NCCSCCNS(=O)(=O)c2ccc(C)cc2)cc1	OVCAR-3	label 0

Q: Record request — test call for COc1ccc(C2CC(c3ccc4ccccc4c3O)=NN2)cc1OC (stereo not drawn)
Ans: label 0

Q: Now the compound CCN(CC)CCc1c2c(nc3ccccc13)C(=O)c1cccnc1C2=O
Ans: label 1

Q: Further, for COc1cc2c3c(cc(Cl)nc3c1OC)C(O)(CC(C)=O)C(=O)N2 (stereo not drawn) ?
Ans: label 0
